tested on: DU-145 prostate; assay: NCI tumour cell line growth inhibition, 48 h; in the data active = GI50 below about 0.43 µM; inactive = the rest
Choose the fitting class; nothing outside active, inactive is accepted.

| MOLECULE | STUDY TARGET | LABEL |
| --- | --- | --- |
| O=[N+]([O-])c1cc(S(=O)(=O)Oc2ccccc2)ccc1Cl | DU-145 prostate | inactive |
| COc1cc2c(c(OC)c1OC)-c1ccc(SC)c(=O)cc1[C@@H](NC1OC(CO)C(O)C(O)C1O)CC2 (stereo partly specified) | DU-145 prostate | active |
| COc1ccc(OC)c(C2SCC(=O)N2NC(=O)C(O)c2ccccc2)c1 (stereo unspecified) | DU-145 prostate | inactive |
| C[CH2][Pb]([CH2]C)([CH2]C)[O]C(=O)c1ccc2ccccc2n1 | DU-145 prostate | inactive |
| CCn1c2ccccc2c2cc(/C=C(/C#N)C(N)=O)ccc21 | DU-145 prostate | inactive |

Test call for this molecule, please: C#CCOc1cccc(Nc2ncnc3c(NC(=O)CCl)cccc23)c1
inactive

Same question for COc1cc(/C=C/[N+](=O)[O-])cc(Br)c1OC please.
inactive

Same question for BrCc1ccc(CBr)cc1 please.
inactive

Same question for CC(=O)c1c(C(F)(F)F)n([O-])c2ccc(C)cc2[n+]1=O please.
inactive

Same question for CCN1C(=O)N(CC)C2C1NN=c1s/c(=C\c3ccccc3Br)c(=O)n12 (stereo unspecified) please.
active

Same question for O=C(Nc1cccc(Nc2ncc(Br)c(NCCc3cnc[nH]3)n2)c1)N1CCCC1 please.
inactive

====

// values below are reported TGI
test system: TK-10 renal; assay: NCI tumour cell line growth inhibition, 48 h

These recorded examples may help you get a feel for the data.
| COMPOUND | OBSERVED |
| --- | --- |
| CCOc1nc(N)nc(C)c1N=Nc1ccc(Cl)cc1 | > 100 µM |
| O=C(CC(=O)Nc1ccccc1)N/N=C/c1cc(N=Nc2ccc(Br)cc2)ccc1O | > 10 µM |
| CC(C)(C)c1ccc(C(=O)Nc2sc3c(c2C(N)=O)CCC(=O)C3)cc1 | 4.77 µM |
| O=[As](O)(O)c1ccc(N=Nc2ccc(O)cc2)cc1 | > 100 µM |
| COc1ccc(C=O)c(NC(=O)C(C)C)c1 | > 100 µM |

Let us examine a further case.
What value of TGI has been recorded for this entry: CC1(C)C2CCC13CS(=O)(=O)N1O[C@]13C(=O)O2 (stereo partly specified)
> 100 µM

====

test system: SF-295 CNS; test: NCI tumour cell line growth inhibition, 48 h
REPORTED ENDPOINT: GI50

What value of GI50 has been recorded for this entry: CCCCCn1sc(=O)n(Cc2ccc(CNC(=O)OCc3ccc4cccc(O)c4n3)cc2)c1=O
6.73 µM

====

system: ACHN renal; assay: NCI tumour cell line growth inhibition, 48 h
// values below are reported TGI
Use µM as the unit, but write only the number.

| COMPOUND | STUDY TARGET | TGI (µM) |
| --- | --- | --- |
| O=C(N/N=C/c1cc(Cl)cc(Cl)c1O)c1ccccc1O | ACHN renal | 5.57 |
| CN1CCN(Cc2ccc(NC(=O)c3[nH]ncc3Nc3ncnc4sc5c(c34)CCCC5)cc2)CC1 | ACHN renal | 0.969 |
| OC1(c2ccccc2)CSC2=Nc3ccccc3C3CCN1N23 (stereo not given) | ACHN renal | 54.1 |

Let us examine a further case.
What value of TGI has been recorded for this entry: C#CCOc1cccc(Nc2ncnc3c(NC(=O)CCl)cccc23)c1
37.8
